biological target: Lysophosphatidic acid receptor 5 (Homo sapiens, UniProt Q9H1C0); test: Antagonist activity at human LPA5 receptor expressed in RH7777 cells assessed as inhibition of EC80 concentration of hexadecyl LPA-induced calcium mobilization incubated for 15 mins by FLIPR method; format: functional, cell-based
Sequence (Q9H1C0 whole entry): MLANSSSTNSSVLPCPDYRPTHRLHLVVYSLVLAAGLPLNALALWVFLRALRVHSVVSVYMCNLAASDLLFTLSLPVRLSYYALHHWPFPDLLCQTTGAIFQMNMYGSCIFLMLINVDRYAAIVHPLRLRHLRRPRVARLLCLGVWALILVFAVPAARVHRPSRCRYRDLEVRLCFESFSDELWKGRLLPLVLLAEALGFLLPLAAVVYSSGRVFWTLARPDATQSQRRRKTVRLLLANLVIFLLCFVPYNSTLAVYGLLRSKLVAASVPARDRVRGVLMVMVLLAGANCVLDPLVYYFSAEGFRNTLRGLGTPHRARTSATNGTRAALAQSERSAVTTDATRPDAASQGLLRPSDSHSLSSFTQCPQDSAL

Compound String: COc1cc2c(C(=O)NC3CCCC3)cn(-c3cccc(N(C)C)c3)c(=O)c2cc1OC
Result Comparator: >
IC50, µM: 10

Compound String: COc1cc2c(C(=O)N3CCCCC3)cn(-c3cccc(OC(C)C)c3)c(=O)c2cc1OC
Result Comparator: =
IC50, µM: 0.63

Compound String: COc1cc2c(C(=O)N(C)OC)cn(-c3cccc(N(C)C)c3)c(=O)c2cc1OC
Result Comparator: =
IC50, µM: 0.32

Compound String: COc1cc2c(C(=O)N3CCC(c4ccccc4)CC3)cn(-c3cccc(N(C)C)c3)c(=O)c2cc1OC
Result Comparator: =
IC50, µM: 1.19

Compound String: COc1cc2c(C(=O)N3CCC(C)(C)CC3)cn(-c3cccc(N(C)C)c3)c(=O)c2cc1OC
Result Comparator: =
IC50, µM: 1.1

Compound String: COc1cc2c(C(=O)N3CCCCC3)cn(-c3cccc(C(N)=O)c3)c(=O)c2cc1OC
Result Comparator: >
IC50, µM: 10

Compound String: COc1cc2c(C(=O)Nc3ccccc3)cn(-c3cccc(N(C)C)c3)c(=O)c2cc1OC
Result Comparator: >
IC50, µM: 10

Compound String: COc1cc2c(C(=O)N3CCCC3)cn(-c3cccc(N(C)C)c3)c(=O)c2cc1OC
Result Comparator: >
IC50, µM: 10

Compound String: C#CC1CCN(C(=O)c2cn(-c3cccc(N(C)C)c3)c(=O)c3cc(OC)c(OC)cc23)CC1
Result Comparator: =
IC50, µM: 0.046

----------
Reported inhibition is given for each of the following molecules.
target: Lysophosphatidic acid receptor 5 (Homo sapiens); assay: Antagonist activity at human LPA5 receptor expressed in RH7777 cells assessed as inhibition of EC80 concentration of LPA-induced cAMP accumulation preincubated for 30 mins followed by Eu-cAMP tracer addition and measured after 1 hr by TR-FRET assay relative to hexadecyl LPA; type: functional, cell-based; details: filed as antagonist

Compound String: COc1cc2c(C(=O)N3CCC(F)CC3)cn(-c3cccc(C(C)C)c3)c(=O)c2cc1OC
inhibition (%): 98
--
Compound String: C#CC1CCN(C(=O)c2cn(-c3ccc4scc(C)c4c3)c(=O)c3cc(OC)c(OC)cc23)CC1
inhibition (%): 100
--
Compound String: COc1cc2c(C(=O)N3CCC(F)CC3)cn(-c3cccc(N(C)C)c3)c(=O)c2cc1OC
inhibition (%): 94

----------
Measured IC50 of individual entries
molecular target: UniProtKB Q9H1C0; assay: Antagonist activity at human LPA5 receptor expressed in RH7777 cells assessed as inhibition of EC80 concentration of hexadecyl LPA-induced calcium mobilization incubated for 15 mins by FLIPR method; format: functional, cell-based

Compound String: COc1cc2c(C(=O)N3CCCCC3)cn(-c3ccc4occ(C)c4c3)c(=O)c2cc1OC
IC50: 0.048 µM
//
Compound String: COc1cc2c(C(=O)N3CCC(F)CC3)cn(-c3cccc(N(C)C)c3)c(=O)c2cc1OC
IC50: 0.079 µM
//
Compound String: COc1cc2c(C(=O)N3CCCCC3)cn(-c3cccc(C(C)C)c3)c(=O)c2cc1OC
IC50: 0.063 µM
//
Compound String: COc1cc2c(C(=O)N3CCCCC3)cn(-c3ccc4occc4c3)c(=O)c2cc1OC
IC50: 1.1 µM
//
Compound String: COc1cc2c(C(=O)N3C4CCCC3CC4)cn(-c3cccc(N(C)C)c3)c(=O)c2cc1OC
IC50: 0.23 µM
//
Compound String: COc1cc2c(C(=O)N3CCC(C)CC3)cn(-c3cccc(N(C)C)c3)c(=O)c2cc1OC
IC50: 0.16 µM
//
Compound String: COc1cc2c(C(=O)N3CCC(c4ccc(F)cc4F)CC3)cn(-c3cccc(N(C)C)c3)c(=O)c2cc1OC
IC50: > 10 µM
//
Compound String: COc1cc2c(C(=O)N3CCCCC3)cn(-c3ccc4sccc4c3)c(=O)c2cc1OC
IC50: 0.64 µM
//
Compound String: COc1cc2c(C(=O)N3CCC(F)CC3)cn(-c3ccc4occ(C)c4c3)c(=O)c2cc1OC
IC50: 0.144 µM
